For each entry below, report its growth inhibition value.
experiment: NCI Yeast Anticancer Drug Screen. Data for the wt2 strain (AID 169);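 note: 0% = growth of vehicle-treated yeast cultures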; settings: S. cerevisiae wt2 strain growth inhibition; at 11.0 µM; active compounds read high
About 79,000 compounds went through this panel and 15% of them were active in at least one assay; those are over-represented in the sample as a whole.
One number for each entry, in %.

1) Nc1nc2ccc(NCc3ccc(C(=O)NC(CCC(=O)O)C(=O)O)cc3)cc2c(=O)[nH]1 (stereo unspecified); -22
2) O=C(C[n+]1ccc2ccccc2c1)c1ccc2ccccc2c1; -53
3) COc1cc([C@@H]2c3cc4c(cc3[C@H](OC3OC5COC(C(C)C)OC5C(O)C3O)C3COC(=O)[C@@H]32)OCO4)cc(OC)c1O (stereo partly specified); -45
4) O=c1[nH]c2ccc(Cl)cc2o1; -31
5) O=C(NNc1ccccc1)C(O)C(O)C(O)C(O)C(O)CO (stereo unspecified); 28
6) CCc1cc(O)c(Cl)c(C)c1Cl; -25
7) C=C1CC(CCCl)(c2ccccc2)OC1=O (stereo unspecified); 38
8) CCCCOC(=O)Nc1ccc(C)c(NC(=O)OCCCC)c1; 6
9) COC(=O)NC1C(C)OC(OC2C/C=C(/C)C3C=CC4C(OC5CC(OC6CC(O)C(OC7CC(O)C(OC)C(C)O7)C(C)O6)C(O)C(C)O5)C(C)CC(C)C4C3(C)/C(O)=C3\C(=O)OC4(CC(C)C(CO)=CC4/C=C\2C)C3=O)CC1(C)[N+](=O)[O-] (stereo unspecified); -47
10) CCCCCCCCCCCC1=NCCO1; 2

Could you tell me growth inhibition for each of these compounds? They are listed below.
1. COc1cc([C@@H]2c3cc4c(cc3[C@@H](Nc3ccc(NC(=O)c5cc([N+](=O)[O-])cn5C)cc3)[C@H]3COC(=O)[C@H]23)OCO4)cc(OC)c1O
2. O=[N+]([O-])c1cccc2nc3ccccc3c(NCCC[N+]3([O-])CCCCC3)c12
3. CC(=O)Nc1ccc(/C=C/[N+](=O)[O-])cc1

Found:
[-8, 25, -4]

Could you tell me growth inhibition for each of these compounds? They are listed below.
1. CN1CCN(C(=O)/C=C/C(=O)c2ccccc2)CC1
2. CCCCCCC(O)CNCc1ccnc2ccc(OC)cc12 (stereo unspecified)
3. CC(C)/C(Cl)=N\OC(=O)Nc1ccc(F)cc1F
4. O=C(O)CNC(=S)Nc1ccccc1
5. CCCCc1nnc(NS(=O)(=O)c2ccc(C)cc2)s1
6. O=Cc1ccc2c(c1)C(=O)c1ccccc1C2=O
7. C/C=C/SC(=Nc1ccccc1)Nc1ccccc1

Found:
[36, 9, 2, -49, -10, 14, -7]

Lookup: Find the recorded growth inhibition belonging to `Cc1cc(O)c(C(C)C)cc1C1(c2cc(C(C)C)c(O)cc2C)OC(=O)c2ccccc21` and report it.
Found: -3
